meta.source: ChEMBL document CHEMBL4371092

Assay: Therapeutic index, ratio of CC50 for human C8166 cells to EC50 for HIV1 3B infected in human MT4 cells
Assay type: toxicity, cell-based
Conditions: read-out: Ratio CC50/EC50
Some compounds, each annotated with its measured selectivity ratio.

Known results for compounds:
Cc1cn([C@H]2C[C@H](N=[N+]=[N-])[C@@H](CO)O2)c(=O)[nH]c1=O : 338000
C[C@@H]1CC[C@@]2(C)C(C(=O)O)=CCC[C@@H]2[C@@]1(C)CC/C(=C\C(=O)O)C(=O)O : > 16.4
CC1=CC(=O)C[C@@H]2[C@@](C)(CC/C(=C\C(=O)O)C(=O)O)[C@H](C)CC[C@@]12C : > 5.7
CO[C@@H]1OC(=O)C=C1CC[C@@]1(C)[C@H](C)CC[C@@]2(C)C(C)=C(C=O)C[C@H]12 : > 11.9
CC(=O)[C@]1(C)CC[C@@H](C)[C@](C)(CC/C(C)=C/C(=O)O)[C@H]1CC(=O)O : > 16.4

// recorded selectivity ratio for CC1=C(C(=O)O)C[C@@H]2[C@@](C)(CC/C(=C/C(=O)O)CO)[C@H](C)CC[C@@]12C : > 8.5

// recorded selectivity ratio for C/C(=C\C(=O)O)CC[C@@]1(C)[C@H](C)CC[C@]2(C)[C@@H]1CC[C@@H](O)[C@]2(C)O : > 7.3
